// provenance: patent US20220096653A1

pEC50 values by entry
Molecular target: T1, CEACAM5 (R&D Systems, 4128-CM-050) (human, UniProt P06731 35-685)
T1 construct: Immobilised on the ELISA plate; also called human CEACAM5
T1 sequence (looked up): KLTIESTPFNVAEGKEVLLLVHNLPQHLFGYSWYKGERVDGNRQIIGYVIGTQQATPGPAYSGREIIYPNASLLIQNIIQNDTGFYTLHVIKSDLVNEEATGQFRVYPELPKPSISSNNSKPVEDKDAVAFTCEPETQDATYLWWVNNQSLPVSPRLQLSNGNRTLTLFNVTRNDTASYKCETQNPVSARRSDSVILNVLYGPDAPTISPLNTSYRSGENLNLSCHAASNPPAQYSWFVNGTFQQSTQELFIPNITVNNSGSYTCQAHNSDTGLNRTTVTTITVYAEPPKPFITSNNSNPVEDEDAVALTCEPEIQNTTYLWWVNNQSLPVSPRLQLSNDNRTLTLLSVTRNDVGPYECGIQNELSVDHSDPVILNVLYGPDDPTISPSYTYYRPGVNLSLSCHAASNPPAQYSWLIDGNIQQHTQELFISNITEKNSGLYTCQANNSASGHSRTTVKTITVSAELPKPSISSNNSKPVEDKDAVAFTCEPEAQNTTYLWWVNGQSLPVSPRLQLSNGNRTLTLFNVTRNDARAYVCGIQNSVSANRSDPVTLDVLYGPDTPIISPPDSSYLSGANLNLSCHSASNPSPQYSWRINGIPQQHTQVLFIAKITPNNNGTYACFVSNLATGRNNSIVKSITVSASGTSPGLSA
Assay: ELISA on immobilised CEACAM5, 4-parameter fit, duplicate
Just the number, please; pEC50 means minus log10 of the concentration in mol/L.

Some solved entries appear below for comparison.
binder	pEC50
(Y-S1-X)p-Fab^2 with Y Gd/DOTA, S1 given only as drawing CHEM-US-00151, X -Met-Gly-Lys*-Z2(#N)- (Fab, V domains shown, labeling may sit on this chain; sites not stated; labeling portion (MW 1101) on amino groups of the Fab, sites and chain not stated; 1-2 per Fab by MS, also called Ex-No 34; conjugate 34) VH: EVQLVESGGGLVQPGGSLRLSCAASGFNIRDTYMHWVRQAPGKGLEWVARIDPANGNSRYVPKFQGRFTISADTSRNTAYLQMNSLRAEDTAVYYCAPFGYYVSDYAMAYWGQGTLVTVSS VL: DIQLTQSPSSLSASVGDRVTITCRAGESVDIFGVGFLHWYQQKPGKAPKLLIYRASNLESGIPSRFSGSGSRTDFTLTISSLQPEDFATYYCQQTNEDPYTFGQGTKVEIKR	9.42
(Y-S1-X)p-Fab^2 with Y Gd/DOTA, S1 spacer (e), X -Met-Gly-Lys*-Z2(#N)- (Fab, V domains shown, labeling may sit on this chain; sites not stated; labeling portion (MW 1095) on amino groups of the Fab, sites and chain not stated; 1-2 per Fab by MS, also called Ex-No 32; conjugate 32) VH: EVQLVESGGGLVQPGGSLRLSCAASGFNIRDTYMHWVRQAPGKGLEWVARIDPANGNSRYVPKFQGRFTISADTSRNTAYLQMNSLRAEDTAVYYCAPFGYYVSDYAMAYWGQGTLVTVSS VL: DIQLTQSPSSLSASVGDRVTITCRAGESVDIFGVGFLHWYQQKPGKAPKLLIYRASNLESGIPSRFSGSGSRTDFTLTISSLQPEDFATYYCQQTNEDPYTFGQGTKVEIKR	9.43

Next item in the queue.
Reported pEC50, binder (Y-S1-X)p-Fab^2 with Y Gd/DOTA, S1 spacer (k), X -Met-Gly-Lys*-Z2(#N)- (Fab, V domains shown, labeling may sit on this chain; sites not stated; labeling portion (MW 1296) on amino groups of the Fab, sites and chain not stated; 1-2 per Fab by MS, also called Ex-No 46; conjugate 46) VH: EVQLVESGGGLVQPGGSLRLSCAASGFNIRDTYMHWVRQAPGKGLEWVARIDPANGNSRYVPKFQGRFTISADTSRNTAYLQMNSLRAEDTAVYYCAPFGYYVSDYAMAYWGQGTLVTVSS VL: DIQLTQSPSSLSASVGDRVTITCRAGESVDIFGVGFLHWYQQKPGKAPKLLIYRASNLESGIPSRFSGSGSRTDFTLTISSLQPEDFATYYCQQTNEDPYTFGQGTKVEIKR : ____ 9.66
